Target: recombinant GR-1 receptor (canine parietal cell gastrin receptor) (Canis lupus familiaris, UniProt P30552)
Construct: expressed in transfected cells; host or cells: COS-7 cells transiently transfected with GR-1 in pCDNA-1
Sequence (P30552 1-453): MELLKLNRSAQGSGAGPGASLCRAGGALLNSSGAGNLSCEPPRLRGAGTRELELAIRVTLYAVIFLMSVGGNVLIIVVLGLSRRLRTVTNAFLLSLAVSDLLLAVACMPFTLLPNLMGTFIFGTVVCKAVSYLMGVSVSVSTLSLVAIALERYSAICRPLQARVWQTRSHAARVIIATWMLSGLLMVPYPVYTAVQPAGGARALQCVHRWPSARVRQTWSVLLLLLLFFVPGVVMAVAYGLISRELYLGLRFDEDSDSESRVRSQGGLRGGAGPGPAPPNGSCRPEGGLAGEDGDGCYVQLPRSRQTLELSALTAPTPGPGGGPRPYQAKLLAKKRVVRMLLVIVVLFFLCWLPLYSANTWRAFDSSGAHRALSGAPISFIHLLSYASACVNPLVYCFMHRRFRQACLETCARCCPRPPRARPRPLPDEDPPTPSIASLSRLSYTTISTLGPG
Assay: Competition binding of 125I-CCK-8 to intact GR-1 transfected COS-7 cells
Details: read-out: IC₅₀
PROPERTY NAME: IC50 (nM)
Express it in nM; write the number only.

Exercise: Write down IC50 measured for item CN1C(=O)[C@@H](NC(=O)c2cc3ccccc3[nH]2)N=C(c2ccccc2)c2ccccc21
Key: 19

---

Molecular target: recombinant GR-1 receptor (canine parietal cell gastrin receptor) (Canis lupus familiaris, UniProt P30552)
Construct: expressed in transfected cells; host or cells: COS-7 cells transiently transfected with GR-1 in pCDNA-1
Assay: Competition binding of 125I-CCK-8 to intact GR-1 transfected COS-7 cells
PROPERTY NAME: IC50 (nM)
Express it in nM; write the number only.

Exercise: Write down IC50 measured for item Cc1cccc(NC(=O)N[C@@H]2N=C(c3ccccc3)c3ccccc3N(C)C2=O)c1
Key: 130
